Recorded values, source patent US11993604B2.

TARGET: CDK6/cyclin D1 (Homo sapiens, UniProt Q00534)
Sequence (Q00534 whole entry, species assumed): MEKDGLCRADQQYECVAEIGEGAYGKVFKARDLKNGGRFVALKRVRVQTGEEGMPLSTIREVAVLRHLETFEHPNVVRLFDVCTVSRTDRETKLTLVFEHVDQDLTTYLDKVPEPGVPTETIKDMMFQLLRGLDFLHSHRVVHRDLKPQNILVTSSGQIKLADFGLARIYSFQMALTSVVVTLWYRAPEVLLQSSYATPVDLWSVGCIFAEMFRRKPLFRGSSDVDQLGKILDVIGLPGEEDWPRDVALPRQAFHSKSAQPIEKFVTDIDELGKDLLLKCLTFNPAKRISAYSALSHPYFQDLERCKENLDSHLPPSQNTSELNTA
Sequence (P24385 whole entry partner, species assumed): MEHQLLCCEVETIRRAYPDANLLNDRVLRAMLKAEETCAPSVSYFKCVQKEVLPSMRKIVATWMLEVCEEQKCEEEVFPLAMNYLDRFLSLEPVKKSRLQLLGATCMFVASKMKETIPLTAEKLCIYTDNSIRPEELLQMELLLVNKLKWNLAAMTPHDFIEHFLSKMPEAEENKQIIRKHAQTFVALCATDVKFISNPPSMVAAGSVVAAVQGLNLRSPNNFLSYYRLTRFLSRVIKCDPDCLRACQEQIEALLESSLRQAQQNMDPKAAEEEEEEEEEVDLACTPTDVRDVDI
PROTOCOL_TEXT: Biochemical kinase inhibition test, CDK6/cyclin D1 (similar method)
STATED_CONDITIONS: three-fold serial dilution from 10 μM; 10 μM ATP; read-out: CDK6/D1 (nM), enzyme inhibitory activity IC50
Counter-ions that a name gives are not always drawn.
ENDPOINT_LABEL: IC50

{"MOLECULE": "CC(C)n1ncc2ccc3cnc(Nc4ccc(N5CCN[C@@H](C)C5)cn4)nc3c21", "ENDPOINT_LABEL": "IC50", "MEASUREMENT": "5 to 10 nM"}
{"MOLECULE": "CC(C)n1ncc2ccc3cnc(Nc4ccc(N5CCC6(CCNCC6)C5)cn4)nc3c21", "ENDPOINT_LABEL": "IC50", "MEASUREMENT": "20 to 50 nM"}
{"MOLECULE": "CCn1ncc2ccc3cnc(Nc4cc(C)c(N5CCN(C)CC5)cn4)nc3c21", "ENDPOINT_LABEL": "IC50", "MEASUREMENT": "10 to 20 nM"}
{"MOLECULE": "CCN1CCN(c2cnc(Nc3ncc4ccc5cnn(C6CCCC6)c5c4n3)cc2C)CC1", "ENDPOINT_LABEL": "IC50", "MEASUREMENT": "10 to 20 nM"}
{"MOLECULE": "Cc1cc(Nc2ncc3ccc4cnn(C(C)C)c4c3n2)ncc1N1CCS(=O)(=O)CC1", "ENDPOINT_LABEL": "IC50", "MEASUREMENT": "20 to 50 nM"}
{"MOLECULE": "CC(C)n1ncc2c(Br)cc3cnc(Nc4ccc(N5CCN(C)CC5)cn4)nc3c21", "ENDPOINT_LABEL": "IC50", "MEASUREMENT": "10 to 20 nM"}
{"MOLECULE": "CCN1CCN(c2ccc(Nc3ncc4cc(C(C)=O)c5cnn(C(C)C)c5c4n3)nc2)CC1", "ENDPOINT_LABEL": "IC50", "MEASUREMENT": "< 1 nM"}
{"MOLECULE": "CC(C)n1ncc2ccc3cnc(Nc4ccc(N5CCNCC5)cn4)nc3c21 [Compound I-1, hydrochloride]", "ENDPOINT_LABEL": "IC50", "MEASUREMENT": "< 1 nM"}
{"MOLECULE": "c1cc(Nc2ncc3ccc4cnn(C5CCCC5)c4c3n2)ncc1N1CCNCC1", "ENDPOINT_LABEL": "IC50", "MEASUREMENT": "1 to 5 nM"}
{"MOLECULE": "CC(C)n1ncc2c(C#N)cc3cnc(Nc4ccc(N5CCOCC5)cn4)nc3c21", "ENDPOINT_LABEL": "IC50", "MEASUREMENT": "1 to 5 nM"}

---

TARGET: CDK6/cyclin D1 (Homo sapiens)
PROTOCOL_TEXT: Biochemical kinase inhibition test, CDK6/cyclin D1 (similar method)
STATED_CONDITIONS: three-fold serial dilution from 10 μM; 10 μM ATP; read-out: CDK6/D1 (nM), enzyme inhibitory activity IC50
ENDPOINT_LABEL: IC50

{"COMPOUND": "CCN1CCN(c2ccc(Nc3ncc4ccc5cnn(CC)c5c4n3)nc2)CC1", "ENDPOINT_LABEL": "IC50", "MEASUREMENT": "5 to 10 nM"}
{"COMPOUND": "CCn1ncc2ccc3cnc(Nc4ccc(N5CCOCC5)cn4)nc3c21", "ENDPOINT_LABEL": "IC50", "MEASUREMENT": "5 to 10 nM"}
{"COMPOUND": "Cc1nc(Nc2ncc3ccc4cnn(C(C)C)c4c3n2)ccc1N1CCNCC1", "ENDPOINT_LABEL": "IC50", "MEASUREMENT": "1 to 5 nM"}
{"COMPOUND": "CC(C)n1ncc2ccc3cnc(Nc4ccc(N5CCCNCC5)cn4)nc3c21", "ENDPOINT_LABEL": "IC50", "MEASUREMENT": "10 to 20 nM"}
{"COMPOUND": "CC(C)n1ncc2ccc3cnc(Nc4ccc(N5C[C@@H](C)N[C@@H](C)C5)cn4)nc3c21", "ENDPOINT_LABEL": "IC50", "MEASUREMENT": "5 to 10 nM"}
{"COMPOUND": "Cc1cc(Nc2ncc3ccc4cnn(C5CC5)c4c3n2)ncc1N1CCOCC1", "ENDPOINT_LABEL": "IC50", "MEASUREMENT": "10 to 20 nM"}
{"COMPOUND": "CC(C)n1ncc2ccc3cnc(Nc4ccc(N5CCS(=O)(=O)CC5)cn4)nc3c21", "ENDPOINT_LABEL": "IC50", "MEASUREMENT": "10 to 20 nM"}
{"COMPOUND": "CC(C)n1ncc2ccc3cnc(Nc4ccc(N5CCN(C)CC5)cn4)nc3c21", "ENDPOINT_LABEL": "IC50", "MEASUREMENT": "1 to 5 nM"}
{"COMPOUND": "CC(C)n1ncc2ccc3cnc(Nc4ccc(N5CC6(CCNCC6)C5)cn4)nc3c21", "ENDPOINT_LABEL": "IC50", "MEASUREMENT": "1 to 5 nM"}
{"COMPOUND": "Cc1cc(Nc2ncc3ccc4cnn(C5CCCC5)c4c3n2)ncc1N1CCNCC1", "ENDPOINT_LABEL": "IC50", "MEASUREMENT": "10 to 20 nM"}
{"COMPOUND": "CCN1CCN(c2ccc(Nc3ncc4cc(Br)c5cnn(C(C)C)c5c4n3)nc2)CC1", "ENDPOINT_LABEL": "IC50", "MEASUREMENT": "10 to 20 nM"}
{"COMPOUND": "Cc1cc(Nc2ncc3ccc4cnn(C(C)C)c4c3n2)ncc1N1CCOC(C)C1 (stereo not shown)", "ENDPOINT_LABEL": "IC50", "MEASUREMENT": "20 to 50 nM"}
{"COMPOUND": "CC(C)n1ncc2ccc3cnc(Nc4ccc(N5CCCCC5)cn4)nc3c21", "ENDPOINT_LABEL": "IC50", "MEASUREMENT": "50 to 100 nM"}
{"COMPOUND": "CC(=O)c1cc2cnc(Nc3ccc(N4CCNCC4)cn3)nc2c2c1cnn2C(C)C", "ENDPOINT_LABEL": "IC50", "MEASUREMENT": "< 1 nM"}
{"COMPOUND": "CCn1ncc2ccc3cnc(Nc4ccc(N5CCNCC5)c(F)n4)nc3c21.Cl", "ENDPOINT_LABEL": "IC50", "MEASUREMENT": "5 to 10 nM"}
{"COMPOUND": "Cc1cc2cnc(Nc3ccc(N4CCNCC4)cn3)nc2c2c1cnn2C(C)C.Cl", "ENDPOINT_LABEL": "IC50", "MEASUREMENT": "1 to 5 nM"}
{"COMPOUND": "CC(=O)c1cc2cnc(Nc3ccc(N4CCOCC4)cn3)nc2c2c1cnn2C(C)C", "ENDPOINT_LABEL": "IC50", "MEASUREMENT": "< 1 nM"}
{"COMPOUND": "CC(C)n1ncc2ccc3cnc(Nc4ccc(N5CCNCC5)c(F)n4)nc3c21", "ENDPOINT_LABEL": "IC50", "MEASUREMENT": "5 to 10 nM"}
{"COMPOUND": "CC(C)n1ncc2c(Br)cc3cnc(Nc4ccc(N5CCOCC5)cn4)nc3c21", "ENDPOINT_LABEL": "IC50", "MEASUREMENT": "10 to 20 nM"}

---

Listed compounds paired with reported IC50
TARGET: recombinant CDK4/Cyclin D1 (Homo sapiens)
Construct: purchased Life Technologies PV4204
Sequence (P11802 whole entry): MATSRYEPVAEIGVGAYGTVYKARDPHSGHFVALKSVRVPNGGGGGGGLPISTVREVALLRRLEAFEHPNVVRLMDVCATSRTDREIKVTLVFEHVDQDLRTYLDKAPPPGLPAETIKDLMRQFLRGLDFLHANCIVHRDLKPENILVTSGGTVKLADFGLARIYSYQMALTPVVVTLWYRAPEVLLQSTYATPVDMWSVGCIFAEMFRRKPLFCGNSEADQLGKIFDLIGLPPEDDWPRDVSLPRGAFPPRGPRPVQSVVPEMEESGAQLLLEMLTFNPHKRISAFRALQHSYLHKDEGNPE
Sequence (P24385 whole entry partner): as the sequence (P24385 whole entry partner, species assumed) above
PROTOCOL_TEXT: Biochemical kinase inhibition test, CDK4/Cyclin D1 (32P-ATP, retinoblastoma protein substrate)
STATED_CONDITIONS: three-fold serial dilution from 10 μM; 10 μM ATP; read-out: CDK4/D1 (nM), enzyme inhibitory activity IC50

{"COMPOUND": "CC(=O)c1cc2cnc(Nc3ccc(N4CCNCC4)cn3)nc2c2c1cnn2C(C)C [Compound I-75]", "IC50": "1 to 5 nM"}
{"COMPOUND": "CC(C)n1ncc2ccc3cnc(Nc4ccc(N5CCOCC5)cn4)nc3c21 [Compound I-15]", "IC50": "1 to 5 nM"}
{"COMPOUND": "CCN1CCN(c2ccc(Nc3ncc4cc(C#N)c5cnn(C(C)C)c5c4n3)nc2)CC1 [Compound I-73]", "IC50": "10 to 20 nM"}
{"COMPOUND": "CCN1CCN(c2cnc(Nc3ncc4ccc5cnn(C(C)C)c5c4n3)cc2C)CC1 [Compound I-8]", "IC50": "5 to 10 nM"}
{"COMPOUND": "CC(C)n1ncc2c(Br)cc3cnc(Nc4ccc(N5CCNCC5)cn4)nc3c21 [Compound I-61]", "IC50": "10 to 20 nM"}

---

TARGET: CDK6/cyclin D1 (Homo sapiens, UniProt Q00534)
PROTOCOL_TEXT: Biochemical kinase inhibition test, CDK6/cyclin D1 (similar method)
STATED_CONDITIONS: CDK6/cyclin D1 versus CDK4/cyclin D1
ENDPOINT_LABEL: selectivity for CDK6/cyclin D1 relative to CDK4/cyclin D1 (enzyme inhibitory activity)

{"MOLECULE_SMILES": "CC(=O)c1cc2cnc(Nc3cc(F)c(N4CCNCC4)cn3)nc2c2c1cnn2C(C)C.Cl", "MEASUREMENT": "about 2 times"}
{"MOLECULE_SMILES": "Cl.c1cc(Nc2ncc3ccc4cnn(C5CC5)c4c3n2)ncc1N1CCNCC1", "MEASUREMENT": "about 2 times"}
{"MOLECULE_SMILES": "CC(C)n1ncc2c(C#N)cc3cnc(Nc4cc(F)c(N5CCNCC5)cn4)nc3c21.Cl", "MEASUREMENT": "about 2 times"}
